Sourced from patent US10668051B2

# tgt: CRAC channels (Homo sapiens (Human), UniProt Q96D31)
# Sequence (Q96D31 whole entry): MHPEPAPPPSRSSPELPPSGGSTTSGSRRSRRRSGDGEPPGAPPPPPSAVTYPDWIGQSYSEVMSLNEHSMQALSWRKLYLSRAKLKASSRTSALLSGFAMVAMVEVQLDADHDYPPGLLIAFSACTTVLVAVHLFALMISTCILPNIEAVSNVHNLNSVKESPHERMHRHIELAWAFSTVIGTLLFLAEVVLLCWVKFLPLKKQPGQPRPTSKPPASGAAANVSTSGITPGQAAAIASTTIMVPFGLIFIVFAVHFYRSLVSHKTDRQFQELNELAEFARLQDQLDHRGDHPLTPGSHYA
# procedure.summary: In-vitro CRAC channel inhibition assay in Jurkat cells (thapsigargin-induced calcium influx)
# Type: cell-based
Counter-ions that a name gives are not always drawn.
Values of inhibition at 1 µM greater than or equal to 80% map to satisfied; values below map to not satisfied.

{"columns": ["compound", "classification"],
 "data": [
  ["O=C(Nc1ccc(-n2nc(C(F)(F)F)cc2C2CC2)nc1)c1cccc(F)c1F", "satisfied"],
  ["Cc1ncsc1C(=O)Nc1ccc(-n2nc(C(F)(F)F)cc2C2CC2)nc1 [Example 102, hydrochloride]", "not satisfied"],
  ["Cc1nnsc1C(=O)Nc1ccc(-n2nc(C(F)(F)F)cc2C2CC2)cc1", "satisfied"],
  ["Cc1ncncc1C(=O)Nc1cc(F)c(-n2nc(C(F)(F)F)cc2C2CC2)c(F)c1", "not satisfied"],
  ["Cc1nnsc1C(=O)Nc1ccc(-n2nc(C(F)(F)F)cc2C2CC2)c(F)c1", "satisfied"],
  ["Cc1ncsc1CNc1ccc(-n2nc(C(F)(F)F)cc2C2CC2)cc1", "satisfied"],
  ["O=C(Nc1ccc(-n2nc(C(F)(F)F)cc2C2CC2)nc1)c1cccnc1 [Example 111, hydrochloride]", "satisfied"],
  ["O=C(Nc1cccc(F)c1F)c1ccc(-n2nc(C(F)(F)F)cc2C2CC2)c(F)c1", "not satisfied"],
  ["Cc1nc(C)c(C(=O)Nc2ccc(-n3nc(C(F)(F)F)cc3C3CC3)cc2)s1", "satisfied"],
  ["O=C(Nc1c(Cl)cccc1Cl)c1ccc(-n2nc(C(F)(F)F)cc2C2CC2)c(F)c1", "satisfied"],
  ["Cc1noc(C)c1C(=O)Nc1ccc(-n2nc(C(F)(F)F)cc2C2CC2)cc1", "satisfied"],
  ["O=C(Nc1ccc(-n2nc(C3CC3)cc2C2CC2)nc1)c1ccncc1 [Example 47, dihydrochloride]", "not satisfied"],
  ["Cc1ncncc1C(=O)N(C)c1ccc(-n2nc(C(F)(F)F)cc2C2CC2)c(F)c1", "not satisfied"],
  ["Cc1ncncc1C(=O)Nc1ccc(-n2nc(C(F)(F)F)cc2C2CC2)c(F)c1", "satisfied"],
  ["Cc1noc(C)c1C(=O)Nc1ccc(-n2nc(C(F)(F)F)cc2C2CC2)nc1", "not satisfied"],
  ["CS(=O)(=O)c1ccc(C(=O)Nc2ccc(-n3nc(C4CC4)cc3C3CC3)cc2)cc1", "not satisfied"],
  ["CS(=O)(=O)c1ccc(Cl)c(C(=O)Nc2ccc(-n3nc(C(F)(F)F)cc3C3CC3)cc2)c1", "satisfied"]
]}

---

Item-by-item account of inhibition at 1 µM
# tgt: CRAC channels (Homo sapiens (Human), UniProt Q96D31)
# procedure.summary: In-vitro CRAC channel inhibition assay in Jurkat cells (thapsigargin-induced calcium influx)
# Format: cell-based
Structures can show the parent of a compound that is named as a salt.
experimental.endpoint: inhibition at 1 µM (%)

{"columns": ["compound", "recorded.result"],
 "data": [
  ["O=C(Nc1ccc(-n2nc(C3CC3)cc2C2CC2)nc1)c1ccncc1F", 12.3],
  ["O=C(Nc1ccc(-n2nc(C(F)(F)F)cc2C2CC2)cc1)c1cccc(F)c1F", 100],
  ["Cc1ncncc1C(=O)Nc1ccc(-n2nc(C3CC3)cc2C2CC2)cc1", 82.8],
  ["Cc1ncsc1C(=O)Nc1ccc(-n2nc(C3CC3)cc2C2CC2)nc1 [Example 39, hydrochloride]", 41.3]
]}
